# Assay Info: Human HepG2 cell viability assay in 384 well format
# Type: toxicity, cell-based
# Parameters: dose 125 nL, time 70.5 hour; concentration not given beside the values
# Test Settings: HepG2 cells, read-out: Inhibition
compounds and their reported cytotoxicity at 70.5 h

| Compound | cytotoxicity at 70.5 h |
| --- | --- |
| Cc1cc(N2CCC(Cc3ccncc3)C2)ncn1 (stereo unspecified) | -3.38% |
| CNC(=O)c1ccc(NC(=O)NC(C)CCc2cccn2C)c(C)c1 (stereo unspecified) | -0.342% |
| CC(C)C(CCO)NC(=O)Nc1ccc(-c2csnn2)cc1 (stereo unspecified) | -5.31% |
| CCc1cnc(N2CC[C@@H]3CN(C(C)=O)CCO[C@@H]3C2)nc1 | -2.86% |
| Cc1nn(C)c(N2CCOCC2)c1CNC1CCC(O)CC1 (stereo unspecified) | -1.76% |
| CCC1=N[C@@]2(CC[C@@H]3CN(Cc4ccc(F)cc4)C[C@@H]32)C(=O)N1C | 0.293% |

Taken from ChEMBL document CHEMBL3507680.
